Reported Vd values for a set of compounds
Test: Volume of distribution in dog at 2 mg/kg, iv
Type: ADME, organism-based, Canis lupus familiaris
Conditions: in vivo
measured_metric: Vd

# smiles_input, measured_metric, obs_value
measured = [
    ("CCOC(=O)/C=C/C(=O)NNC(=O)CCc1ccccc1C(=O)N[C@H](C)c1cccc(-c2cccs2)c1", "Vd", "0.681 L/kg"),
    ("COC(=O)/C=C/C(=O)NNC(=O)CCc1ccccc1C(=O)N[C@H](C)c1cccc2ccccc12", "Vd", "0.742 L/kg"),
]

* * *

Assay: Cmax in dog at 2 mg/kg, iv
Type: ADME, organism-based, Canis lupus familiaris
Settings: in vivo
Reported Cmax values for a set of compounds

# smiles_input, Cmax, µg/mL
rows = [
    ("CCOC(=O)/C=C/C(=O)NNC(=O)CCc1ccccc1C(=O)N[C@H](C)c1cccc(-c2cccs2)c1", 3.22),
    ("COC(=O)/C=C/C(=O)NNC(=O)CCc1ccccc1C(=O)N[C@H](C)c1cccc2ccccc12", 2.84),
]
